B1: REST corepressor 3, residues 87 to 134; numbered along this chain, Q9P2K3 (parent)
chain: DEWTVEDKVLFEQAFSFHGKSFHRIQQMLPDKTIASLVKYYYSWKKTR

# Variants of: B1
# PROTOCOL_TEXT: abundance fitness (aPCA) (normalised: wild type 0, dead -1); higher = more abundant; growth selection in yeast, the domain comes from the species named
# TEST_PARAMETERS: Homo sapiens
PARAMETER: abundance fitness
Reply: number alone, nothing else.

Exercise: Quote abundance fitness reported for `D31L` please.
Solution: -0.314

Exercise: Respond only with abundance fitness recorded for `A14W`
Solution: -0.664

Exercise: Specify measured abundance fitness for `S21D` .
Solution: 1.11

Exercise: Give the value of abundance fitness reported for the following: `E2S`
Solution: -0.441

Exercise: Answer with the recorded abundance fitness of `Q13F` only.
Solution: -0.614
